- TARGET SYSTEM: human orexin-2 receptor (Homo sapiens (Human))
- PROTOCOL SUMMARY: In vitro assay: intracellular calcium measurements (FLIPR), antagonistic activity
- Assay type: cell-based
- CONDITION DESCRIPTION: CHO cells, 3 nM orexin-A, compound incubation 120 min; marked values are geometric means of n = 2-6; read-out: IC50 OX2
RESULT TYPE: log10 IC50 (log10 of the value in nM)
Base-10 log of IC50, unit nM.

Recorded log10 IC50 (molecule COc1cccc(OC)c1C1CCCC(=O)N1Cc1cccc(-c2cncs2)c1 (centres unmarked) [Example 42] ): 1.23

Recorded log10 IC50 (molecule COc1cccc(OC)c1C1CCCCC(=O)N1Cc1ccc2nc(C)sc2c1 (centres unmarked) [Example 105] ): 2.41

Recorded log10 IC50 (molecule COc1cccc(OC)c1C1CC(C)C(=O)N1Cc1ccc2c(ccn2C)c1 (centres unmarked) [Example 391] ): 2.72

Recorded log10 IC50 (molecule COc1cccc(OC)c1C1CCCCC(=O)N1Cc1ccc2ccccc2n1 (centres unmarked) [Example 79] ): 1.91

Recorded log10 IC50 (molecule COc1cccc(OC)c1C1CCCC(=O)N1Cc1csc(-c2ccccc2)n1 (centres unmarked) [Example 35] ): 0.70

----------
- TARGET SYSTEM: UniProt O43614
- PROTOCOL SUMMARY: In vitro assay: intracellular calcium measurements (FLIPR), antagonistic activity
- Format: cell-based
- CONDITION DESCRIPTION: CHO cells, 3 nM orexin-A, compound incubation 120 min; marked values are geometric means of n = 2-6; read-out: IC50 OX2
Give measured IC50 for each item. Keep answers brief.
Entry rule: numbers only, all in nM.

Recorded IC50 (compound COc1ccc(Cl)c(OC)c1[C@@H]1C[C@@H](O)C(=O)N1Cc1ccc(OC(F)(F)F)cc1 (racemic) [Example 314] ): 920

Recorded IC50 (compound COc1cccc(OC)c1C1CC(C)C(=O)N1Cc1ccc2ccccc2c1 (centres unmarked) [Example 131] ): 455

Recorded IC50 (compound COc1cccc(OC)c1C1CC(C)C(=O)N1Cc1ccc2c(c1)c1ccccc1n2C (centres unmarked) [Example 387] ): 111

Recorded IC50 (compound COc1cccc(OC)c1C1CCCC(=O)N1Cc1cnc(OC(F)F)c(Cl)c1 (centres unmarked) [Example 5] ): 38

Recorded IC50 (compound COc1ccnc(OC)c1C1CCCC(=O)N1Cc1cccc(-c2csc(C)n2)c1 (centres unmarked) [Example 54] ): 13

Recorded IC50 (compound COc1cc(CN2C(=O)C(C)CC2c2c(OC)cccc2OC)ccc1OC(F)F (centres unmarked) [Example 425] ): 235

Recorded IC50 (compound COc1ncnc(OC)c1C1CCCC(=O)N1Cc1cccc(-c2ccccc2)c1 (centres unmarked) [Example 270] ): 412

Recorded IC50 (compound COc1cccc(OC)c1C1CCCC(=O)N1Cc1csc(Oc2ccccc2)n1 (centres unmarked) [Example 278] ): 172

----------
- TARGET SYSTEM: human orexin-1 receptor (Homo sapiens (Human))
- Sequence (O43613 whole entry): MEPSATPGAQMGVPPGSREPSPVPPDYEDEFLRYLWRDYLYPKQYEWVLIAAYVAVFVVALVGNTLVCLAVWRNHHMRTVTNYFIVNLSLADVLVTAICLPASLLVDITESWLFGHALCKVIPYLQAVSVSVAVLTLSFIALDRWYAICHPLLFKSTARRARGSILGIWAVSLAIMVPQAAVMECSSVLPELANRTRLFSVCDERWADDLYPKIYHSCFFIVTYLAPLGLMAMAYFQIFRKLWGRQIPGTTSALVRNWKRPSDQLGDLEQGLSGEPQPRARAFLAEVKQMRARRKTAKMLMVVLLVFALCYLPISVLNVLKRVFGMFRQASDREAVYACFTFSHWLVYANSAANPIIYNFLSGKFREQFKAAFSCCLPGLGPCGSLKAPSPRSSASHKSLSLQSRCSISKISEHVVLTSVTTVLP
- PROTOCOL SUMMARY: In vitro assay: intracellular calcium measurements (FLIPR), antagonistic activity
- Assay type: cell-based
- CONDITION DESCRIPTION: CHO cells, 3 nM orexin-A, compound incubation 120 min; marked values are geometric means of n = 2-6; read-out: IC50 OX1
RESULT TYPE: pIC50
In plain terms, pIC50 is the concentration in mol/L turned into minus its base-10 logarithm.

Recorded pIC50 (compound COc1ncnc(OC)c1C1CCCC(=O)N1Cc1csc(-c2ccccc2)n1 (stereo not shown) ): 5.24

Recorded pIC50 (compound COc1cccc(OC)c1C1CC(C)C(=O)N1Cc1cccc(-c2ccccc2)c1 (stereo not shown) ): 7.74

Recorded pIC50 (compound COc1ccnc(OC)c1C1CC(C)C(=O)N1Cc1cccc(-c2ncc(C)s2)c1 (stereo not shown) ): 6.98

Recorded pIC50 (compound COc1cccc(OC)c1C1CC(C)C(=O)N1Cc1cccc(-c2ccccn2)c1F (stereo not shown) ): 7.41

Recorded pIC50 (compound COc1cccc(OC)c1C1CCCC(=O)N1Cc1cccc(-c2nccs2)c1 (stereo not shown) ): 8.40

Recorded pIC50 (compound COc1cccc(OC)c1C1CC(C)C(=O)N1Cc1ccc2sc3ccccc3c2c1 (stereo not shown) ): 8.22

Recorded pIC50 (compound COc1cccc(OC)c1C1CCCCC(=O)N1Cc1csc(-c2ccccc2)n1 (stereo not shown) ): 8.22

Recorded pIC50 (compound COc1cccc(OC)c1C1CCCC(=O)N1Cc1ccc(-c2ccccc2)s1 (stereo not shown) ): 6.93

Recorded pIC50 (compound COc1ccc2c(c1C1CCCC(=O)N1Cc1ccc(OC(F)(F)F)cc1)OCO2 (stereo not shown) ): 6.45

Recorded pIC50 (compound COc1cccc(OC)c1C1CCCCC(=O)N1Cc1ccc(-c2ccccc2)cc1 (stereo not shown) ): 6.52

Recorded pIC50 (compound COc1cc(F)cc(OC)c1C1CCCC(=O)N1Cc1cccc(-c2ccccc2)c1 (stereo not shown) ): 6.58

Recorded pIC50 (compound COc1cccc(OC)c1C1CC(C)C(=O)N1Cc1cc2ccccc2n1C (stereo not shown) ): 7.08

Recorded pIC50 (compound COc1cccc(OC)c1C1CCC(=O)N1Cc1ccc(Oc2nc(C)cs2)cc1 (stereo not shown) ): 6.67

Recorded pIC50 (compound COc1cccc(F)c1C1CC(C)C(=O)N1Cc1cnc2ccccc2c1 (stereo not shown) ): 6.02

Recorded pIC50 (compound O=C1CCCCC(c2ccccc2-c2ccncc2)N1Cc1cccc(-c2nccs2)c1 (stereo not shown) ): 6.25

Recorded pIC50 (compound COc1cccc(OC)c1C1CC(C)C(=O)N1Cc1ccc2c(ccn2C)c1 (stereo not shown) ): 6.76

Recorded pIC50 (compound COc1ccc2ccccc2c1[C@@H]1C[C@H](F)C(=O)N1Cc1ccc(OC(F)(F)F)cc1 (racemic) ): 5.92

Recorded pIC50 (compound CCOc1cccc(F)c1C1CC(C)C(=O)N1Cc1ccnc(-c2nc(C)cs2)c1 (stereo not shown) ): 7.41

Recorded pIC50 (compound O=C1CCCCC(c2ccccc2-c2cncs2)N1Cc1cccc(-c2nccs2)c1 (stereo not shown) ): 6.37

Recorded pIC50 (compound COc1cccc(OC)c1C1CCCCC(=O)N1Cc1ccnc(-n2cccn2)c1 (stereo not shown) ): 8.10

Recorded pIC50 (compound COc1cccc(OC)c1C1CCCC(=O)N1Cc1cccc(-c2cscn2)c1 (stereo not shown) ): 7.92

Recorded pIC50 (compound COc1cccc(OC)c1C1CCCCC(=O)N1Cc1cccc(-n2cccn2)c1 (stereo not shown) ): 8.30

Recorded pIC50 (compound CCOc1cccc(F)c1[C@@H]1C[C@@H](O)C(=O)N1Cc1ccc(OC(F)(F)F)c(F)c1 (racemic) ): 5.77

Recorded pIC50 (compound COc1cccc(OC)c1C1CCCCC(=O)N1Cc1cccc(-c2ncc(C)s2)c1 (stereo not shown) ): 9.00

Recorded pIC50 (compound COc1cncc(OC)c1C1CCCC(=O)N1Cc1cccc(-c2nccs2)c1 (stereo not shown) ): 7.40

Recorded pIC50 (compound COc1ccnc(OC)c1C1CC(C)C(=O)N1Cc1cccc(-c2csc(C)n2)c1 (stereo not shown) ): 7.52

Recorded pIC50 (compound COc1cccc(OC)c1C1CCCCC(=O)N1Cc1cccc(-c2ccccn2)c1F (stereo not shown) ): 7.85

Recorded pIC50 (compound COc1cccc(OC)c1C1CCC(=O)N1Cc1cccc(N2CCCCC2)n1 (stereo not shown) ): 6.20

Recorded pIC50 (compound COc1cccc(OC)c1C1CC(C)C(=O)N1Cc1cccc(-n2cccn2)n1 (stereo not shown) ): 6.87

Recorded pIC50 (compound CC(C)Oc1cccc(F)c1C1CC(F)(F)C(=O)N1Cc1ccc(OC(F)(F)F)cc1 (stereo not shown) ): 5.83

Recorded pIC50 (compound CCOc1cccc(Cl)c1[C@@H]1C[C@H](F)C(=O)N1Cc1ccc(OC(F)(F)F)cc1 (racemic) ): 6.02

Recorded pIC50 (compound Cc1nc(-c2cccc(CN3C(=O)CCCC3c3cccc4c3OCCO4)c2)cs1 (stereo not shown) ): 6.29

Recorded pIC50 (compound COc1cccc(OC)c1C1CCCCC(=O)N1Cc1cccc(-c2ccncc2)c1 (stereo not shown) ): 7.80

Recorded pIC50 (compound CCOc1c(F)cccc1[C@@H]1C[C@H](Cl)C(=O)N1Cc1ccc(OC(F)(F)F)cc1 (racemic) ): 6.05

----------
- TARGET SYSTEM: human orexin-2 receptor (Homo sapiens (Human), UniProt O43614)
- Sequence (O43614 whole entry): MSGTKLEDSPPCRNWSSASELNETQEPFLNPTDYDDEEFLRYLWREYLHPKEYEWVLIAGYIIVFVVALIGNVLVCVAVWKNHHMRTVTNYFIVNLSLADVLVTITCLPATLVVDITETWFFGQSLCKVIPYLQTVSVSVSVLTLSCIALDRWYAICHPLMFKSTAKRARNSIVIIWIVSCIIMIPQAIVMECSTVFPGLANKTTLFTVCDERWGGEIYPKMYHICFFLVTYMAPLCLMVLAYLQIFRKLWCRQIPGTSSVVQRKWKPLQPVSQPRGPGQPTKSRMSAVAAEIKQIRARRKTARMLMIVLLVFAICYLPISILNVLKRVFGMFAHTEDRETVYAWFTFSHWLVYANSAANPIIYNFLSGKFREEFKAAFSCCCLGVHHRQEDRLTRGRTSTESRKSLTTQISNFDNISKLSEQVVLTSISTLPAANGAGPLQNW
- PROTOCOL SUMMARY: In vitro assay: intracellular calcium measurements (FLIPR), antagonistic activity
- Assay type: cell-based
- CONDITION DESCRIPTION: CHO cells, 3 nM orexin-A, compound incubation 120 min; marked values are geometric means of n = 2-6; read-out: IC50 OX2
pIC50: −log10 of the molar value.
Respond with class 1 for pIC50 values of 7 and above, class 0 for values below.

**Query** Does the reported pIC50 for COc1cccc(OC)c1C1CCCC(=O)N1Cc1cccc(-c2csc(C)n2)c1 (centres unmarked) [Example 16] fall at or above the 7 mark?
**Result** class 1

**Query** Does the reported pIC50 for COc1cccc(OC)c1C1CC(C)C(=O)N1Cc1ccc(OC(F)(F)F)c(F)c1 (centres unmarked) [Example 400] fall at or above the 7 mark?
**Result** class 0

**Query** Does the reported pIC50 for COc1cccc(OC)c1C1CCCC(=O)N1Cc1cnc(-c2ccccc2)s1 (centres unmarked) [Example 21] fall at or above the 7 mark?
**Result** class 0

**Query** Does the reported pIC50 for CCOc1cccc(F)c1C1CC(C)C(=O)N1Cc1cccc(OC(F)F)c1 (centres unmarked) [Example 374] fall at or above the 7 mark?
**Result** class 1

**Query** Does the reported pIC50 for COc1cccc(OC)c1C1CCCC(=O)N1Cc1cccc(-c2ncccn2)c1 (centres unmarked) [Example 29] fall at or above the 7 mark?
**Result** class 1

**Query** Does the reported pIC50 for O=C1[C@H](O)C[C@@H](c2cccc3c2OCCO3)N1Cc1ccc(OC(F)(F)F)cc1 (racemic) [Example 295] fall at or above the 7 mark?
**Result** class 0

**Query** Does the reported pIC50 for COc1cccc(F)c1C1CC(C)C(=O)N1Cc1ccc2oc3ccccc3c2c1 (centres unmarked) [Example 362] fall at or above the 7 mark?
**Result** class 1

**Query** Does the reported pIC50 for Cc1nc(-c2cccc(CN3C(=O)C(C)CC3c3ccccc3-c3ccccc3)c2)cs1 (centres unmarked) [Example 290] fall at or above the 7 mark?
**Result** class 0

**Query** Does the reported pIC50 for COc1ccc2c(C)noc2c1C1CCCC(=O)N1Cc1cccc(-c2ccccc2)c1 (centres unmarked) [Example 235] fall at or above the 7 mark?
**Result** class 0

**Query** Does the reported pIC50 for COc1cncc(OC)c1C1CCCC(=O)N1Cc1cccc(-c2nccs2)c1 (centres unmarked) [Example 61] fall at or above the 7 mark?
**Result** class 1

Ref: patent US9242970B2
